Hello, the source for this data is patent US20260035382A1, in case you need it.

biological target: SAE (Homo sapiens (Human), UniProt Q9UBT2); assay: In vitro inhibitory activity assay against SAE (SUMO-2/3 immunofluorescence in HCT116 cells); type: cell-based; details: 6 h incubation, class symbols, read-out: SUMO IF IC50
Sequence (Q9UBT2 whole entry): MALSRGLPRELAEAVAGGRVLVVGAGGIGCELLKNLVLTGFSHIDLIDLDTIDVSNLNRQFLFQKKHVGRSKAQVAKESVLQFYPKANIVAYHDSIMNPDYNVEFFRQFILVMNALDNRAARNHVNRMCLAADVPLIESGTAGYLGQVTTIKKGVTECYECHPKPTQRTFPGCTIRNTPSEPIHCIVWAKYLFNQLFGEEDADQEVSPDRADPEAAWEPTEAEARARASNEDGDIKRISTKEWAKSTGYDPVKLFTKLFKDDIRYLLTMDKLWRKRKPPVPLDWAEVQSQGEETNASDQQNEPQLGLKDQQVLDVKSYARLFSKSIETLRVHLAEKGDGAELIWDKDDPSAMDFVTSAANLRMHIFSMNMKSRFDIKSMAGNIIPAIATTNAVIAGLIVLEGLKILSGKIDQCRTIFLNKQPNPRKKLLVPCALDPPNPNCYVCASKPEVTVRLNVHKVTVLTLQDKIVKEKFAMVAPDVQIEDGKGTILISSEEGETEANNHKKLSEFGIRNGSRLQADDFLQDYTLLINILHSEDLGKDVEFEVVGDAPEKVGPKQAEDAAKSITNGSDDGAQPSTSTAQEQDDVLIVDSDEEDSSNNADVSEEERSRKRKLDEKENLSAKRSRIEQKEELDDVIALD
Sequence (Q9UBE0 whole entry partner): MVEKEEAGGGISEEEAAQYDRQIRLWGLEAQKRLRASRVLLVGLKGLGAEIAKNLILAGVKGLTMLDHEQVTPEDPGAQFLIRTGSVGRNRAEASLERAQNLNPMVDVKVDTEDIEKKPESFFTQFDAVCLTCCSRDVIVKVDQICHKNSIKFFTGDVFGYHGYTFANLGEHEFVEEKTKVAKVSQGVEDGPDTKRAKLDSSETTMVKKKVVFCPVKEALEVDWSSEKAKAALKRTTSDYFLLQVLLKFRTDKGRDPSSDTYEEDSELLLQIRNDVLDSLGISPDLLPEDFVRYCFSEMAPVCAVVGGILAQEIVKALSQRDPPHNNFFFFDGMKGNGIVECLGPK
Please respond with reported IC50 for every item in the list.

State, for SAE (Homo sapiens (Human), UniProt Q9UBT2), measured IC50 of the compound listed here: N#Cc1ccc2c(c1)[C@@]1(CCCc3sc(C(=O)c4cncnc4N[C@@H]4C[C@H](COS(N)(=O)=O)[C@@H](O)C4)cc31)NCC2
≤ 50 nM

State, for SAE (Homo sapiens (Human), UniProt Q9UBT2), measured IC50 of the compound listed here: NS(=O)(=O)OC[C@H]1C[C@@H](Nc2ncncc2C(=O)c2cc3c(s2)COC[C@@]32NCCc3c(F)cc(Cl)cc32)C[C@@H]1O
> 200 nM

State, for SAE (Homo sapiens (Human), UniProt Q9UBT2), measured IC50 of the compound listed here: NS(=O)(=O)OC[C@H]1C[C@@H](Nc2ncncc2C(=O)c2cc3c(s2)OC[C@@]32NCCc3ccc(F)cc32)C[C@@H]1O
> 200 nM

State, for SAE (Homo sapiens (Human), UniProt Q9UBT2), measured IC50 of the compound listed here: NS(=O)(=O)OC[C@H]1C[C@@H](Nc2ncncc2C(=O)c2cc3c(s2)CCCC32NCCc3ccc(C(F)(F)F)cc32)C[C@@H]1O (stereo partly drawn)
50 to 200 nM

State, for SAE (Homo sapiens (Human), UniProt Q9UBT2), measured IC50 of the compound listed here: NS(=O)(=O)OC[C@H]1C[C@@H](Nc2ncncc2C(=O)c2cc3c(s2)CC[C@]32NCCc3cc(Cl)c(F)cc32)C[C@@H]1O
≤ 50 nM

State, for SAE (Homo sapiens (Human), UniProt Q9UBT2), measured IC50 of the compound listed here: NS(=O)(=O)OC[C@H]1C[C@@H](Nc2ncncc2C(=O)c2cc3c(s2)CCC32NCCc3ccc(F)cc32)C[C@@H]1O (stereo partly drawn)
50 to 200 nM
